# System: MDA-MB-231
# protocol: NCI tumour cell line growth inhibition, 48 h
Calls of active or inactive are those of the source. Cut-off read from the data, not from the text of the source: active = GI50 up to about 1.1 µM and inactive = higher.
assay_endpoint: GI50

compound	GI50
COc1cc(/C=c2\sc3n(c2=O)C(c2ccc(Cl)cc2)C2=C(CCCC2C)N=3)cc(OC)c1OC (stereo not drawn)	25.9 µM (inactive)
N#CC(c1ccccc1)c1cccc2ccccc12 (stereo not drawn)	48.6 µM (inactive)

Let us examine a further case.
Fill in the blank: the reported GI50 of "Cc1cc(C)c(S(=O)(=O)N(CCCCCCN)OCCCON(CCCCCCN)S(=O)(=O)c2c(C)cc(C)cc2C)c(C)c1" is ____. 1.8 µM (inactive)

----------
# Tested on: PC-3
# protocol: NCI tumour cell line growth inhibition, 48 h
The source made the active and inactive calls. Cut-off read from the data, not from the text of the source: active = GI50 up to about 1.1 µM and inactive = higher.
assay_endpoint: GI50

Please review the entries below; each comes with its answer.
compound	GI50
CCOC(=O)N/N=C(\CC)NO	> 100 µM (inactive)
COc1cc(/C=C2\CCC/C(=C\c3ccc(OC(=O)CCCCC4CCSS4)c(OC)c3)C2=O)ccc1OC(=O)CCCCC1CCSS1 (configuration not stated)	> 100 µM (inactive)
CSc1nc(Br)nc2ncn(C3CC(Oc4ccc(C)cc4)C(COc4ccc(C)cc4)O3)c12 (configuration not stated)	> 100 µM (inactive)
COc1cccc(CC(=O)N2CCN(CCCc3ccccc3)CC2)c1	> 100 µM (inactive)

Fill in the blank: the reported GI50 of "COC(=O)C1=C(C(=O)OC)SC2(S1)C1=C(CCCC1)SC(C(=O)OC)=C2C(=O)OC" is ____. 5.02 µM (inactive)

Fill in the blank: the reported GI50 of "O=C1Nc2ccc(Br)cc2C1=Nc1cccnc1" is ____. 18.1 µM (inactive)

Fill in the blank: the reported GI50 of "CC(=O)O[C@H]1CC[C@@]2(C)C(=CC[C@H]3[C@@H]4C[C@H](N5CCCC5)[C@H](OC(C)=O)[C@@]4(C)CC[C@@H]32)C1" is ____. > 100 µM (inactive)

----------
# Tested on: MDA-N
# protocol: NCI tumour cell line growth inhibition, 48 h
Active and inactive are the calls of the source. No stated cut-off is given here; in the data, active = GI50 up to about 1.1 µM and inactive = higher.
Use one of these outcomes when replying: T for active, F for inactive

compound	tested_on	class
Cc1nc2ccc(NCCN(C)C)c3c(=O)c4cc(O)ccc4n1c23	MDA-N	F
CCO/C=N/C1=C(C#N)C(c2ccc(OC)c(OC)c2)c2c(-c3ccccc3)nn(-c3ccccc3)c2O1 (centres undefined)	MDA-N	F
COc1cc([C@@H]2c3cc4c(cc3[C@@H](Nc3ccccc3C(=O)c3ccccc3)[C@H]3COC(=O)[C@H]23)OCO4)cc(OC)c1OC	MDA-N	T
COc1ccc2c(c1OC)OCC(CN(C)C)C2=O (centres undefined)	MDA-N	F
c1ccc(CSCCC(SCc2ccccc2)SCc2ccccc2)cc1	MDA-N	F
COc1ccc(C2=Cc3nc2c(-c2ccccc2)c2ccc([nH]2)c(-c2ccccc2)c2nc(c(-c4ccccc4)c4ccc([nH]4)c3-c3ccccc3)C=C2)cc1	MDA-N	F
O=c1c(C(c2cccc(C(c3c(O)oc4ccccc4c3=O)c3c(O)oc4ccccc4c3=O)c2)c2c(O)oc3ccccc3c2=O)c(O)oc2ccccc12	MDA-N	F
Cc1cc(C[C@H]2O[C@@H]3OC(C)(C)O[C@@H]3[C@H]3OC(C)(C)O[C@H]32)c2ccccc2n1	MDA-N	F

Could you now look at the following compound, please?
Hi, do you know how CC(C)C1=CC23CCC4C(C)(C(=O)O)CCCC4(C)C2CC1C1C(=O)N(c2ccc(C(=O)O)cc2)C(=O)C13 (centres undefined) came out in this test? F
